Test system: HEK-293T
Protocol Notes: Multiplex assay against HEK293T
Type: toxicity, cell-based
Experimental Parameters: human, 12 h, 10 µM, compound concentration 10 uM, replicate 1
Decide by Population Fragmented Nuclei (%): equal to or exceeding 10% means rule met, less means rule not met.

Example entries and their recorded answers appear below.
{"Compound": "Cl.O=c1c2cccn2c2ccccc2n1CCCN1CCC(c2ccc(Cl)cc2)CC1", "Experimental System": "HEK-293T", "Label Class": "rule not met"}
{"Compound": "Cc1cc(C)c(S(=O)(=O)N(Cc2ccc(-c3cccc(S(C)(=O)=O)c3)cc2)Cc2ccc(C(F)(F)F)o2)c(C)c1", "Experimental System": "HEK-293T", "Label Class": "rule met"}
{"Compound": "COCC(=O)NC/C=C/c1ccc2ncnc(Nc3ccc(Oc4ccc(C)nc4)c(C)c3)c2c1 [CP-724714]", "Experimental System": "HEK-293T", "Label Class": "rule met"}
{"Compound": "CCc1cccc(CC)c1NC(=O)c1nn(C)c2c1CCc1cnc(Nc3ccc(C(=O)NC4CCN(C)CC4)cc3OC(F)(F)F)nc1-2", "Experimental System": "HEK-293T", "Label Class": "rule met"}
{"Compound": "CCn1cc(-c2ccnc3[nH]c(-c4cccc(CN(C)C)c4)cc23)c(-c2ccc(NC(=O)N(C)C)cc2)n1 [GSK-1070916]", "Experimental System": "HEK-293T", "Label Class": "rule met"}
{"Compound": "COc1ccc(S(=O)(=O)N(CCO)c2ccccc2CN(C)C/C=C/c2ccc(Cl)cc2)cc1.O=P(O)(O)O", "Experimental System": "HEK-293T", "Label Class": "rule met"}

Please examine the following record next.
Form field: Population Fragmented Nuclei (%) at least 10%? Entry: `S=C(NCCCc1c[nH]cn1)NCCCN(Cc1ccc(Cl)c(Cl)c1)c1ccc(Br)cn1`
rule not met

---

compounds and their reported Population Fragmented Nuclei (%)
Tested on: U2OS
Protocol Notes: Multiplex assay against U2OS
Assay type: toxicity, cell-based
Experimental Parameters: human, 12 h, 10 µM, compound concentration 10 uM, replicate 2
Dear colleague, please return just the value in %, with no unit written.

{"Compound": "CCn1c(=O)c(-c2ccc(-c3cncs3)cc2Cl)cc2cnc(Nc3ccc(N4CCN(C)CC4)cc3)nc21", "Experimental System": "U2OS", "Unit Tag": "%", "Assay Result": 8}
{"Compound": "Cl.Oc1ccc2c3c1O[C@H]1c4[nH]c5c(c4C[C@@]4(O)[C@@H](C2)N(CC2CC2)CC[C@]314)C[C@@]1(O)[C@H]2Cc3ccc(O)c4c3[C@@]1(CCN2CC1CC1)[C@H]5O4", "Experimental System": "U2OS", "Unit Tag": "%", "Assay Result": 12}
{"Compound": "Cn1nc(C(F)(F)F)cc1-c1cnc(N2CCc3cc(S(=O)(=O)Nc4c(F)cc(Cl)cc4F)cc(N4CCCC4=O)c32)nc1 [TP-020]", "Experimental System": "U2OS", "Unit Tag": "%", "Assay Result": 8}

Which value of Population Fragmented Nuclei (%) has been reported for `S=C(NCCCc1c[nH]cn1)NCCCN(Cc1ccc(Cl)c(Cl)c1)c1ccc(Br)cn1` in the records?
25

Which value of Population Fragmented Nuclei (%) has been reported for `Cc1ccc2nc(NCCN)c3ncc(C)n3c2c1.O=C(O)C(F)(F)F.O=C(O)C(F)(F)F` in the records?
27

Which value of Population Fragmented Nuclei (%) has been reported for `Cc1ccc(C(=O)Nc2cccc(C(F)(F)F)c2)cc1Nc1nc(-c2cccnc2)nc2c1cnn2C` in the records?
18

Which value of Population Fragmented Nuclei (%) has been reported for `CCc1cccc(CC)c1NC(=O)c1nn(C)c2c1CCc1cnc(Nc3ccc(N4CCN(C)CC4)cc3OC)nc1-2` in the records?
8

Which value of Population Fragmented Nuclei (%) has been reported for `Cl.O=c1c2cccn2c2ccccc2n1CCCN1CCC(c2ccc(Cl)cc2)CC1` in the records?
21

Which value of Population Fragmented Nuclei (%) has been reported for `CCOc1cc(C(=O)N2CCC(N3CCN(C)CC3)CC2)ccc1Nc1ncc2c(n1)N(C1CCCC1)c1ccccc1C(=O)N2C` in the records?
21

Which value of Population Fragmented Nuclei (%) has been reported for CCn1cc(-c2ccnc3[nH]c(-c4cccc(CN(C)C)c4)cc23)c(-c2ccc(NC(=O)N(C)C)cc2)n1 [GSK-1070916] in the records?
24

Which value of Population Fragmented Nuclei (%) has been reported for CN1CCC(=C2c3ccccc3CC(=O)c3sccc32)CC1.O=C(O)/C=C/C(=O)O [KETOTIFEN FUMARATE] in the records?
2

Which value of Population Fragmented Nuclei (%) has been reported for `CNC(=O)c1ccc(Nc2nc(OC3CCCC3)c3c(-c4ccc5nc(C)oc5c4)c[nH]c3n2)c(OC)c1` in the records?
22

Which value of Population Fragmented Nuclei (%) has been reported for `O=C(Nc1cccnn1)N1CCC(=Cc2cccc(Oc3ccc(C(F)(F)F)cn3)c2)CC1` in the records?
8

---

Test system: U2OS
Protocol Notes: Multiplex assay against U2OS
Format: toxicity, cell-based
Experimental Parameters: human, 12 h, 1 µM, compound concentration 1 uM, replicate 2
Parameter: Population Membrane Permeable-Phenotype (%)
Dear colleague, please return just the value in %, with no unit written.

{"Entry Smiles": "CCNc1cc(N[C@H]2CC[C@H](O)CC2)nc(Nc2ccc3c(ccn3Cc3ccccc3)c2)n1", "Experimental System": "U2OS", "Unit Tag": "%", "Assay Result": 18}
{"Entry Smiles": "COc1ccc(-c2ccc3c(N4CCOCC4)nc(N4C[C@@H](C)O[C@@H](C)C4)nc3n2)cc1CO", "Experimental System": "U2OS", "Unit Tag": "%", "Assay Result": 4}
{"Entry Smiles": "Cl.O=c1c2cccn2c2ccccc2n1CCCN1CCC(c2ccc(Cl)cc2)CC1", "Experimental System": "U2OS", "Unit Tag": "%", "Assay Result": 0}
{"Entry Smiles": "CCc1cccc(CC)c1NC(=O)c1nn(C)c2c1CCc1cnc(Nc3ccc(C(=O)NC4CCN(C)CC4)cc3OC(F)(F)F)nc1-2", "Experimental System": "U2OS", "Unit Tag": "%", "Assay Result": 5}
{"Entry Smiles": "CCN1CCN(Cc2ccc(Nc3ncc(F)c(-c4cc(F)c5nc(C)n(C(C)C)c5c4)n3)nc2)CC1.CS(=O)(=O)O", "Experimental System": "U2OS", "Unit Tag": "%", "Assay Result": 8}
{"Entry Smiles": "CCc1cccc(CC)c1NC(=O)c1nn(C)c2c1CCc1cnc(Nc3ccc(N4CCN(C)CC4)cc3OC)nc1-2", "Experimental System": "U2OS", "Unit Tag": "%", "Assay Result": 77}

API: value(readout=Population Membrane Permeable-Phenotype (%), system=U2OS) for record `CCCn1c(=O)c2[nH]c(-c3cnn(Cc4cccc(C(F)(F)F)c4)c3)nc2n(CC)c1=O`
8

API: value(readout=Population Membrane Permeable-Phenotype (%), system=U2OS) for record `COC(=N)c1nc2ccc3ncnc(Nc4ccc(OC)cc4F)c3c2s1`
16

---

Test system: Fibroblast
Protocol Notes: Multiplex assay against human fibroblast
Assay type: toxicity, cell-based
Experimental Parameters: 24 h, 1 µM, compound concentration 1 uM, replicate 2
Parameter: Population Mitochondria Different-Phenotype (%)
Dear colleague, please return just the value in %, with no unit written.

Answered examples (5):
{"Molecule": "O=C(Nc1ccc(-c2ccnc(Nc3ccc(N4CCOCC4)cc3)n2)cc1)[C@@H]1CCCN1", "Unit Tag": "%", "Assay Result": 19}
{"Molecule": "O=C(Nc1ccc(-n2nc(-c3cccnc3)cc2C(F)(F)F)cn1)c1ccc(-c2ccccc2)c(F)c1", "Unit Tag": "%", "Assay Result": 9}
{"Molecule": "CN1CCN(C(=O)C(C)(C)c2ccc(C(=O)Nc3cn4cc(-c5cc(C(C)(C)C)cc(C(C)(C)C)c5)ccc4n3)cc2)CC1", "Unit Tag": "%", "Assay Result": 11}
{"Molecule": "Cl.Oc1ccc2c3c1O[C@H]1c4[nH]c5c(c4C[C@@]4(O)[C@@H](C2)N(CC2CC2)CC[C@]314)C[C@@]1(O)[C@H]2Cc3ccc(O)c4c3[C@@]1(CCN2CC1CC1)[C@H]5O4", "Unit Tag": "%", "Assay Result": 13}
{"Molecule": "O=C(Nc1cccnn1)N1CCC(=Cc2cccc(Oc3ccc(C(F)(F)F)cn3)c2)CC1", "Unit Tag": "%", "Assay Result": 23}

Which value of Population Mitochondria Different-Phenotype (%) has been reported for `S=C(NCCCc1c[nH]cn1)NCCCN(Cc1ccc(Cl)c(Cl)c1)c1ccc(Br)cn1` in the records?
8

Which value of Population Mitochondria Different-Phenotype (%) has been reported for `COC(=N)c1nc2ccc3ncnc(Nc4ccc(OC)cc4F)c3c2s1` in the records?
7

Which value of Population Mitochondria Different-Phenotype (%) has been reported for `CCc1cccc(CC)c1NC(=O)c1nn(C)c2c1CCc1cnc(Nc3ccc(N4CCN(C)CC4)cc3OC)nc1-2` in the records?
100

Which value of Population Mitochondria Different-Phenotype (%) has been reported for `CCN1CCN(Cc2ccc(Nc3ncc(F)c(-c4cc(F)c5nc(C)n(C(C)C)c5c4)n3)nc2)CC1.CS(=O)(=O)O` in the records?
85

Which value of Population Mitochondria Different-Phenotype (%) has been reported for `CNc1cc(Oc2cc(C(=O)Nc3cc(N4CCN(C)CC4)cc(C(F)(F)F)c3)ccc2C)ncn1` in the records?
68

Which value of Population Mitochondria Different-Phenotype (%) has been reported for `Cc1ccc2nc(NCCN)c3ncc(C)n3c2c1.O=C(O)C(F)(F)F.O=C(O)C(F)(F)F` in the records?
20

Entry source: ChEMBL document CHEMBL4689842
